Values compiled from patent US20160083466A1.

- study_system: T1, human IL-25 expressed with a C-terminal myc-myc-hexahistidine tag (human)
- T1 construct: also called hIL-25-MMH; Human IL-25-MMH
- T1 chain: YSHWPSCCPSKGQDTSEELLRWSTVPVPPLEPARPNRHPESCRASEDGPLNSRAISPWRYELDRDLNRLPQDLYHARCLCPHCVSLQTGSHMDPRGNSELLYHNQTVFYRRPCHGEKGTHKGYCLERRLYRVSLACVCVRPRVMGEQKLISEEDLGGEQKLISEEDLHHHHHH
- assay_protocol: BLI Octet, hIL-25-MMH captured on anti-Penta-His sensor, 25C
assay_metric: 50 ug/mL mAb-1 Binding (nm)
Put down the number, then write its unit next to it.

The reported 50 ug/mL mAb-1 Binding (nm) of the binder H4H10876P (antibody, human IgG4, V domains shown, H4H prefix = human IgG4 Fc) VH: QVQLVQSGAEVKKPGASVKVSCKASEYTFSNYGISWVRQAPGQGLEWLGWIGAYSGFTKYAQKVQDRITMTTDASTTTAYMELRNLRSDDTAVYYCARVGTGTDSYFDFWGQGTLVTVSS VL: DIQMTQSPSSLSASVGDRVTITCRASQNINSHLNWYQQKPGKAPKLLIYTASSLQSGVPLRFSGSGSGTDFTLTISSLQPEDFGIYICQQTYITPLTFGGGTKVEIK was 1.07 nm

The reported 50 ug/mL mAb-1 Binding (nm) of the binder H4H10907P (antibody, human IgG4, V domains shown, H4H prefix = human IgG4 Fc) VH: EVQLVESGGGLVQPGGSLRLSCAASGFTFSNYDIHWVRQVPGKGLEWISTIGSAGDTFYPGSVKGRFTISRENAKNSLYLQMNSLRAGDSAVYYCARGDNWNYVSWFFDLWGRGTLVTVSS VL: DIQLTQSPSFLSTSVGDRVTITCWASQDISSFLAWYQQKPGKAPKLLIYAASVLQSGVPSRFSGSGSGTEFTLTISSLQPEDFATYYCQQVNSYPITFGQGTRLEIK was 1.74 nm
